TARGET OF ASSAY: IRAK4 (Homo sapiens)
Sequence (Q9NWZ3 1-460): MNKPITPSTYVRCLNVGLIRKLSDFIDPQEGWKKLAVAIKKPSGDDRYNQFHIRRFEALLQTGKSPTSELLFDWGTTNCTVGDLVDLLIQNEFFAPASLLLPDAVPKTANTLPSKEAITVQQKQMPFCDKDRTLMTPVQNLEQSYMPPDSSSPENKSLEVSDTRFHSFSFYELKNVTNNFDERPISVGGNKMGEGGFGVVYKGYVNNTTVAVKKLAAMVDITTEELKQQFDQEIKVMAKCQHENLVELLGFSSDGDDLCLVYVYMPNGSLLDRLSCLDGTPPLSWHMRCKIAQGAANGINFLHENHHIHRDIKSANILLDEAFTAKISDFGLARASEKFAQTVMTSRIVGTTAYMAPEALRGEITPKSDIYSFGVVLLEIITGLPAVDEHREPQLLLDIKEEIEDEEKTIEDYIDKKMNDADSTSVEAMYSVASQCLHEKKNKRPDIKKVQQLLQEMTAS
ASSAY METHOD TEXT: mRNA display affinity selection against IRAK4, NGS abundance
Format: binding
Set-up: acids 1-460; NP_057207.2) was purchased from Carna Biosciences; purchased Carna Biosciences (Kobe, Japan)
TEST CONDITIONS: IRAK4 selection pulldown (+); Top100 selection hits, NGS
Measured Library fraction, listed per entry.
Would you mind answering with just the numeric figure?

Some solved entries appear below for comparison.
POLYMER SEQUENCE	ENDPOINT VALUE
TMLWKRRIHA	0.003
SMLFKRRIYR	0.0001
TQYWKRRIYN	0.007
TMLWKRRLFR	0.0001
RILWRRRRYH	0.0009
TQRWKHRLYK	0.0006
ARLWRRRIYQ	0.0001
TADGLILTPWVT	0.0001
SMLFKRRMYK	0.0003
GPVIYNRRIYC	0.0001

Switching to the query record.
Exam item: Library fraction for AQYWKRRLWR ?
Marked response: 0.0001
